Listed here: items and their measured EC50, inhibition of mouse IL-1β-induced IL-6 secretion by MRC5 cells.
biological target: mouse IL-1β (mouse, UniProt P10749 118-269); assay: cell-based or functional assay
measurementType: EC50, inhibition of mouse IL-1β-induced IL-6 secretion by MRC5 cells (nM)

INSERT INTO results (binder, unitsofmeasure, quantitativereadout) VALUES
  ('P1D9 (antibody, V domains shown, also called matured Ig P1D9) VH: QVQLQQWGAGLLKPSETLSLTCAVYGGSFSDYYWSWIRQPPGKGLEWIGEIDHSGSTNYNPSLKSRVTISVDTSRNQFSLSLSSVTAADTAVYYCARASPSSGWTLDYWGQGTLVTVSS VL: QSVLTQPPSVSVSPGQTASITCSGDKLGDKFAFWYQQKPGQSPVLVIYLDNKRPSGIPERFSGSNSGNTATLTISGTQALDEADYYCYAWDNAYEVFGGGTKLTVLG', 'nM', 0.241),
  ('IgG1 2H (antibody, V domains shown, also called IgG 2H; IgG clone 2H) VH: QVQLQQWGAGLLKPSETLSLTCAVYGGSFSDYYWSWIRQPPGKGLEWIGEIDHSGSTNYNPSLKSRVTISVDTSRNQFSLSLSSVTAADTAVYYCARASPSSGWTLDYWGQGTLVTVSS VL: QSVLTQPPSVSVSPGQTASITCSGDKLGDKFAFWYQQKPGQSPVLVIYLDNKRPSGIPERFSGSNSGNTATLTISGTQALDEADYYCQAWDSNIEVFGGGTKLTVLG', 'nM', 1.25),
  ('P2D8 (antibody, V domains shown, also called matured Ig P2D8) VH: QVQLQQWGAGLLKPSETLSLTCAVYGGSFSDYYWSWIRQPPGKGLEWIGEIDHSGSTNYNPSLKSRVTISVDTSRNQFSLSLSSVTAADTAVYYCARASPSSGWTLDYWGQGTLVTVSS VL: QSVLTQPPSVSVSPGQTASITCSGDKLGDKFAFWYQQKPGQSPVLVIYLDNKRPSGIPERFSGSNSGNTATLTISGTQALDEADYYCEAWADTYEVFGGGTKLTVLG', 'nM', 0.197);
